Target: rec-cMet (Recombinant Human HGF R/c-MET/Fc Chimera) (Homo sapiens, UniProt P08581;P08581 SEQ:1-283,SEQ:1-625)
Sequence (P08581 25-307, change not shown, chain 1 of 2): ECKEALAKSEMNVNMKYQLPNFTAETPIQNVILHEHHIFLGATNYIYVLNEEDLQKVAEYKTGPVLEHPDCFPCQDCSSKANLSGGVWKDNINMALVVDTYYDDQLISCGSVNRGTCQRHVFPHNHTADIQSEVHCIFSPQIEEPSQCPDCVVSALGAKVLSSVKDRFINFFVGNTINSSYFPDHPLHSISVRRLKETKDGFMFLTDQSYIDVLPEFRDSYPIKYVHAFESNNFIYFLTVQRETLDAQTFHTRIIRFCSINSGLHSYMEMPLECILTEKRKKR
Sequence (P08581 308-932, change not shown, chain 2 of 2): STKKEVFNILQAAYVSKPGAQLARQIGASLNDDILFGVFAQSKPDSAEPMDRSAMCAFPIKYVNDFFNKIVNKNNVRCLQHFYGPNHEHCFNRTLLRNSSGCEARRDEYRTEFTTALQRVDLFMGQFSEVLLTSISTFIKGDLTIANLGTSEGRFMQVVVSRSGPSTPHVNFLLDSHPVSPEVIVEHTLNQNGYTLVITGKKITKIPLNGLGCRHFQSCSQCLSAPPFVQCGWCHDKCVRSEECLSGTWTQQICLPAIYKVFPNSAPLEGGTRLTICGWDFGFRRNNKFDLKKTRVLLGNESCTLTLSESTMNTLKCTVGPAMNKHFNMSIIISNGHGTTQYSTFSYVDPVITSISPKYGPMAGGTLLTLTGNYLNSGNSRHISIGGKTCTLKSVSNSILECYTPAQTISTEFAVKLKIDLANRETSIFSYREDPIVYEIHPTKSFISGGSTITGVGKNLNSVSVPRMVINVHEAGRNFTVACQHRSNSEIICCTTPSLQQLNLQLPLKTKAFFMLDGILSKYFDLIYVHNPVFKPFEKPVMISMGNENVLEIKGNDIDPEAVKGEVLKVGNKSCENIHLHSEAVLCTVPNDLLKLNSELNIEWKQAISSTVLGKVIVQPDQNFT
Assay: SPR; rec-cMet 100 nM
Conditions: tags: C-terminal HIEGRMD linker, human IgG Fc (100-330), 6xHis; R&D Systems; chain copies: 2 (inferred, Fc chimera)
Measurement label: binding result

Past entries and their recorded results:
> print(dat)
                                     binder  measurement.label  measured.result
1  g17 (ssRNA) RNA: GGGACGCUCACGUACGCUAAAGUGAUGGCCGGCUGGAGAAACGGGCCACUCGAUCCAGGUCAGUGCCUGGACGUGCAGU     binding result            binds
2  g12 (ssRNA) RNA: GGGACGCUCACGUACGCUAACGCGGCCAUCCGGCGUUUGGAACGGGAUGUACACCUGACAUCAGUGCCUGGACGUGCAGU     binding result            binds
3  g35 (ssRNA) RNA: GGGACGCUCACGUACGCUAAGAUUUGUGUGAUACCCGACACUCUAACGGGGUAGCAGGGCUCAGUGCCUGGACGUGCAGU     binding result            binds
4  g29 (ssRNA) RNA: GGGACGCUCACGUACGCUAAACGAGCCGUGAUUGGGUUGGCAACCCUGCUUAUGUGAGGAUCAGUGCCUGGACGUGCAGU     binding result            binds
5  g36 (ssRNA) RNA: GGGACGCUCACGUACGCUAACUUGAUUGGUCGCAACCGGACAAGGACGGGUUGAUGCAGUUCAGUGCCUGGACGUGCAGU     binding result            binds
6  g26 (ssRNA) RNA: GGGACGCUCACGUACGCUAAGCUCCACCAGGUGUAGCUAGCCUGUAGACAUCAGUAGCAUCAGUGCCUGGACGUGCAGU     binding result            binds
7  g38 (ssRNA) RNA: GGGACGCUCACGUACGCUAACCAGGAGCAUUAGACCGGGGAAAGAAGGAGUACCGUCUGGUCAGUGCCUGGACGUGCAGU     binding result            binds
8  g25 (ssRNA) RNA: GGGACGCUCACGUACGCUAAUAGCAACAGUUCCCAGAGGUGAUCAGGCAGCCUUAAGACAUCAGUGCCUGGACGUGCAGU     binding result            binds

Items follow; give binding result for each.
1. g37 (ssRNA) RNA: GGGACGCUCACGUACGCUAAGGUUUGCUCCGACCGACUAAAGGGAGCCUCUGUCACGAGUUCAGUGCCUGGACGUGCAGU
2. g20 (ssRNA) RNA: GGGACGCUCACGUACGCUAAACGUUGUGGCGAACUUCGGCCCGAACGGGAGUAACUGCAUCAGUGCCUGGACGUGCAGU
3. g13 (ssRNA) RNA: GGGACGCUCACGUACGCUAAUCACUCGGACAGCCGGAGCGAAACGGGCUGUGUAAGACUGUCAGUGCCUGGACGUGCAGU

binds
binds
binds

Items follow; give binding result for each.
1. g24 (ssRNA) RNA: GGGACGCUCACGUACGCUAAGAGUUGUCGCACAGCGACUCGAAAAUAAUCUGUCCGACACUCAGUGCCUGGACGUGCAGU
2. g30 (ssRNA) RNA: GGGACGCUCACGUACGCUAAAAAUUGCCGGGAUCUGGUGUGGCGACCAUGCGGCGUGCAUUCAGUGCCUGGACGUGCAGU
3. g33 (ssRNA) RNA: GGGACGCUCACGUACGCUAAACUUUUGGCGAUCUCCGGCCGGAUACGGGAGAACGAGGUAUCAGUGCCUGGACGUGCAGU
4. g14 (ssRNA) RNA: GGGACGCUCACGUACGCUAAUCAUCGGGACAUCGGAUGGAACGGGUGUCAAGAAGCGUGUUCAGUGCCUGGACGUGCAGU
5. g27 (ssRNA) RNA: GGGACGCUCACGUACGCUAACCUAUGCAGACCGACAUCCGGGUAUACGGGAUGAUGCGACUCAGUGCCUGGACGUGCAGU
6. g23 (ssRNA) RNA: GGGACGCUCACGUACGCUAAAUGGGAGUGCGCCUCGGCUCUAACGGAGGUAUGCACGUCAUCAGUGCCUGGACGUGCAGU

binds
binds
binds
binds
binds
binds

Items follow; give binding result for each.
1. g21 (ssRNA) RNA: GGGACGCUCACGUACGCUAACCUUGGUGUCAUCCGACCAAAUUAGAACGGGAUGAGGAAGUCAGUGCCUGGACGUGCAGU
2. g18 (ssRNA) RNA: GGGACGCUCACGUACGCUAAGGCACCCUAUAGGAUUCAGCCCCUAACCCGGUGUUGUGAAUCAGUGCCUGGACGUGCAGU
3. g34 (ssRNA) RNA: GGGACGCUCACGUACGCUAAUUUGGUGAAUUCCGACCAUUUUGCAAACGGGAUACGGGACUCAGUGCCUGGACGUGCAGU
4. g32 (ssRNA) RNA: GGGACGCUCACGUACGCUAAACAAGACCGGGAUGGGGGUUGGUCACACACAAAGACUGAAUCAGUGCCUGGACGUGCAGU

1. binds
2. binds
3. binds
4. binds
